molecular target: RSV F on recombinant mKate-RSV B 18537 virus (Respiratory syncytial virus B 18537, UniProt P13843 26-574); assay: cell-based or functional assay
Sequence (P13843 26-574): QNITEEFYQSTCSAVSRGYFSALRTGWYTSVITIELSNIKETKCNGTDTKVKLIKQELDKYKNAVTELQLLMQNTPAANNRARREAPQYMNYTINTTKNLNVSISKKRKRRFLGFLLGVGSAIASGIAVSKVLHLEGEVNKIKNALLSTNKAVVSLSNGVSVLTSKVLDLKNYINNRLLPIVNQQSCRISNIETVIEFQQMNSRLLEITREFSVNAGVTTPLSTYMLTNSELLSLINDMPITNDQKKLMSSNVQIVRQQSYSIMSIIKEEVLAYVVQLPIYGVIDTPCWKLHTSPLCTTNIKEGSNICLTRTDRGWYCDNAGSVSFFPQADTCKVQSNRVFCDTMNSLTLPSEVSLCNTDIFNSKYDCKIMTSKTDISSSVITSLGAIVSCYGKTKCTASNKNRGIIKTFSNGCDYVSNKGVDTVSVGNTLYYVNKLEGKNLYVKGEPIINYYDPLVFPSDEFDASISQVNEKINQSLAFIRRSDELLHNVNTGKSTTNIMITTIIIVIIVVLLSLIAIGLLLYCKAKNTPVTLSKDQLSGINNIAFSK
property_name: Neut IC50 (ug/ml) subtype B (µg/mL)
Unit µg/mL implied. Number only.

[[record]]
binder = "ADI-21084 (antibody, V domains shown) VH: EVQLVESGAEVKKPGASVTVSCKASGYTFTSNTISWLRQAPGQGLEWLGWVSASNGNTKYAQKFQGRVTMTTDTSATTAYMEVRTLRHDDTAIYYCARDILDMGGFHFDNWGQGTLVTVSS VL: SYVLTQPPSVSVAPGQTARITCGGNNIGNKHVHWYKQKPGQAPVLVVYDDSDRPSGIPERFSGSNSGNTATLTVSRVEAGDEADFYCQVWDNTNDHPVFGGGTKVTVL"
recorded_result = 0.46

[[record]]
binder = "ADI-21082 (antibody, V domains shown) VH: EVQLVESGGGLVKPGGSLKLSCVASGLKFSSYSMNWVRQAPGKGLEWVSSVSAGSSYTNYADSVKGRFTISRDNAKNSLYLQMNSLRVDDTAVYYCATERCSGGSCYLHGFDPWGQGTTVTVSS VL: QSVLTQPPSVSGAPGQRVTISCTGSSSNIGAGYDVHWYQQLPGTAPKLLIFDNIIRPSGVPDRFSGSKSGTSASLAITGLQADDEADYYCQSYDKSGDYVFGTGTKVTVL"
recorded_result = 0.25

[[record]]
binder = "ADI-21085 (antibody, V domains shown, also called Ab 330) VH: EVQLVETGGGLVKPGGSLRLSCEASGFNFRSYSMNWVRQAPGKGLEWVSSISASSSYINYADSVKGRFTISRDNSKNSLYLQMNSLRAEDTGVYYCARVLVHYYYGMDVWGQGTTVTVSS VL: QSVLTQPPSVSAAPGQRVTISCTGTSSNIGAGYDVHWYQQLPGRAPKLLILGNNNRPSGVPDRFSGSKSGTSASLAITGLQAEDEADYYCQTYDKTLMEIFGGGTKLTVL"
recorded_result = 0.48

[[record]]
binder = "ADI-21064 (antibody, V domains shown) VH: EVQLVESGGEVKKPGASVKVSCKASGYIFSNHGVSWVRQAPGQGLEWMGWISAYNGNAIYAQNLQGRVTLTTDTSTSTAYMELTSLTSDDTAIYYCARESGATAAAVMDYWGQGTLVTVSS VL: DIVLTQTPLSLPVILGQPASISCRSSQSLVYSDGNTYLTWFQQRPGQSPRRLIYKVSNRDSGVPDRFSGSGSDTDFTLKISRVEAEDVGVYYCMQGIDWPRTFGQGTKVDIK"
recorded_result = 0.12


Form: binder = ADI-21078 (antibody, V domains shown) VH: EVQLVESGGGLVKPGGSLRLSCAASGFRLSDYYMSWIRQAPGKGLEWISDISGGSTYTNYADSVKGRLTISRDNAQNSLYLQMNSLRAEDTAVYYCARWGSGGPDAFHFWGQGTTVTVSS VL: QSVLTQPPSVSGVPGQRVTISCTGSRSNIGAGYDVHWYRQLPGTAPKLLIYGNSNRPSGVPDRFSGSKSGTSASLAITGLQADDEADYYCQSYDSSLSGSVIFGGGTKVTVL ; Neut IC50 (ug/ml) subtype B = 0.2
